System: SK-MEL-28 cells
Experiment: Modified MTT drug response assay, withaferin A, 72 hours
Format: cell-based, human
Details: SK-MEL-28 cells seeded on stiff substrate (TCPS), WFA 72 hours, read-out: IC50 (concentration resulting in 50% of cell death)
REPORTED METRIC: IC50 (nM)

STRUCTURE	VAL
CC1=C(CO)C(=O)O[C@@H]([C@@H](C)[C@H]2CC[C@H]3[C@@H]4C[C@H]5O[C@]56[C@@H](O)C=CC(=O)[C@]6(C)[C@H]4CC[C@]23C)C1	1100
